The following molecules are listed with their measured AC26 values.
- Tested on: D54 ERlucT glycosylation luciferase reporter, luminescence, 24 h
- test.protocol: N-linked glycosylation inhibitors, luciferase reporter, dose response, D54 ERlucT cells, luminescence, cherry-picks (AID 624491);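 further: signal gain reflects blocked N-linked glycosylation of a luciferase reporter; actives raise luciferase signal so AC26 marks activators of the reporter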
property.label: AC26

* CCOC(=O)c1[nH]c2c(c1-c1ccccc1)C(=O)CC(c1ccccc1)C2 (stereo not given) | 1480 nM
* CC(C)c1ccc(NC(=O)CN2C(=O)NC3(CCCCCCC3)C2=O)cc1 | 1210 nM
* COc1cc(C(=O)OCCc2cc3ccccc3c(=O)o2)cc(OC)c1OC | 562 nM
* COc1ccc(C(=O)N2CCN(S(=O)(=O)c3ccc(C)cc3C)CC2)cc1S(=O)(=O)N1CCOCC1 | 5770 nM
* COc1ccc(C(=O)/C=C/c2ccc(N(C)C)cc2)c(OC)c1 | 11700 nM
* Cc1ccc2nsnc2c1NC(=O)c1ccc(-c2cc(Cl)ccc2Cl)o1 | 846 nM
* CCn1c(=S)[nH]c2cc(S(=O)(=O)N3CCCCC3)ccc21 | 1090 nM
* COC(=O)c1c(NC(=O)c2cccnc2Cl)sc(C(=O)N(C)C)c1C | 2090 nM
* CC(=O)c1cccc(-c2ccnc3c2CC(C(=O)NCc2ccco2)O3)c1 (stereo not given) | 967 nM
* Cn1ncc2c(O/N=C(\N)c3ccc(C(F)(F)F)cc3)ncnc21 | 445 nM
